# assayed-system: T1, mouse FGFR2b (mouse, UniProt P21803)
# T1 chain: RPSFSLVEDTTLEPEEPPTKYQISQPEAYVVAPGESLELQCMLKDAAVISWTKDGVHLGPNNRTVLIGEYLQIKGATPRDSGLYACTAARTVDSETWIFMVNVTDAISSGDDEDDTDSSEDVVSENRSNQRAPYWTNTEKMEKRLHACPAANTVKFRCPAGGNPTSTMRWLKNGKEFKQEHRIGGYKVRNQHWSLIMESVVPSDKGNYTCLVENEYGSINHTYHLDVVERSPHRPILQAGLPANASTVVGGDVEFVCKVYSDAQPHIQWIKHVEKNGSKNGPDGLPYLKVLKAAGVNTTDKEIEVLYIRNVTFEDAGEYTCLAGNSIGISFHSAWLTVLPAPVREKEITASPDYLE
# protocol-description: BLI
Each record here notes measured Kd.
Quick reminder: number only, in nM, skip the unit.

3D7 (antibody, V domains shown) VH: QVQLQQSGAELVKPGASVKMSCKASGYTFSFYNMHWVKRTPGRGLEWIGLIYPDNGDTSYNQKFKGKATLTADTSSSTAYMQLSSLTSEDSAVYYCARGGLDYWGQGTSLTVSS VL: EIVLTQSPASLAVSLGQRATISCKASQSVDYDGDSYMNWYQQKPGQPPKLLIYGISNRFSGVPDRFSGSGSGTDFTLKISTIKPEDLGMYYCLQGTHQPYTFGGGTKLEIK
81.7

Here is another binder to look at.
Data request, read-out Kd, for 2B2 (antibody, V domains shown) VH: QLQLQQSGAELVKPGASVKMSCKASGYTFASYNLHWVKQTPGQGLEWIGLIYPENGDTSYNQKFKDKATLTADKSSTTAYIQLSSLASEDSAVYFCARGGFDYWGQGTTLTVSS VL: DIVMTQSQKFMSTSVGDRVSVTCKASQNVGTNVAWYQQKPGQSPKALIYSASYRYSGVPDRFTGSGSGTDYTLTISSVQAEDLALYYCQQHYSTPYTFGGGTKLELK 53.5
